- Assay System: NPFF1 receptor (human NPFFR1-CHO cells) (Homo sapiens, UniProt Q9GZQ6)
- Sequence (Q9GZQ6 whole entry): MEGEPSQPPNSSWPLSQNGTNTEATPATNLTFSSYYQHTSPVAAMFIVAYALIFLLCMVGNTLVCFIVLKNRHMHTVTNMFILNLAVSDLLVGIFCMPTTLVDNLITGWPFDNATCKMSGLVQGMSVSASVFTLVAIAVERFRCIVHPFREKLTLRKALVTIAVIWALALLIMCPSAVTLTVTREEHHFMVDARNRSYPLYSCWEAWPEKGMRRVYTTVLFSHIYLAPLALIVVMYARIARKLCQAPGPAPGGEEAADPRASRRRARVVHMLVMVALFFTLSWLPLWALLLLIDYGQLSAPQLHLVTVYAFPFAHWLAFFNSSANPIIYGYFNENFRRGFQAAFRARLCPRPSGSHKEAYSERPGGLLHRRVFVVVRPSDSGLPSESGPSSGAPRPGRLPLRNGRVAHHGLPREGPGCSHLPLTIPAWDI
- Experimental Details: Lance cAMP functional Ke assay, NPFF1
- Assay type: cell-based
- Condition Label: Table 5
- Description: Kinetic solubility and bidirectional MDCK-MDR1 permeability assays of the compounds were performed by Paraza Pharma Inc. (Montreal, Canada) according to their standard protocols. cAMP assay. […] Cells were lifted with versene and spun at 270 g for 10 minutes. […] After incubation at RT for 1 hour, the TR-FRET signal (ex 337 nm) was read on a CLARIOstar multimode plate reader (BMG Biotech, Cary NC). […]
Property Measured: Kb

smiles_representation=O=C(NCCc1ccc([N+](=O)[O-])cc1)[C@@H]1C[C@H](NCc2ccc(F)cc2)CN1Cc1ccccc1Cl property_measured=Kb result="1440 nM"
smiles_representation=O=C(NCCc1ccc([N+](=O)[O-])cc1)[C@@H]1C[C@H](NCc2ccc(Cl)cc2)CN1Cc1ccccc1Cl property_measured=Kb result="1550 nM"
smiles_representation=COc1ccc(CN[C@H]2C[C@@H](C(=O)NCCc3ccccc3)N(Cc3ccccc3Cl)C2)cc1 property_measured=Kb result="770 nM"
smiles_representation=COc1ccc(CN[C@H]2C[C@@H](C(=O)NCCc3ccc(F)c(F)c3)N(Cc3ccccc3Cl)C2)cc1 property_measured=Kb result="570 nM"
smiles_representation=CCCCCNC(=O)[C@@H]1C[C@H](NCc2ccc(OC)cc2)CN1Cc1ccccc1Cl property_measured=Kb result="340 nM"

====

- Assay System: NPFF1 receptor (human NPFFR1 in CHO-RD-HGA16 cells) (Homo sapiens, UniProt Q9GZQ6)
- Construct: expressed in transfected cells
- Sequence (Q9GZQ6 whole entry): as above
- Experimental Details: Calcium mobilization functional Ke assay, NPFF1
- Type: cell-based
- Condition Label: calcium mobilization assay
Property Measured: NPFF1 Ke

compound="COc1ccc(CN[C@H]2C[C@@H](C(=O)NCCc3ccc(C(F)(F)F)cc3)N(Cc3ccccc3Cl)C2)cc1 [Compound 36]" assay_system="NPFF1 receptor (human NPFFR1 in CHO-RD-HGA16 cells) (Homo sapiens, UniProt Q9GZQ6)" result="1,670 nM"
compound="CCNC(=O)[C@@H]1C[C@H](NCc2ccc(SC)cc2)CN1Cc1ccccc1Cl [Compound 1]" assay_system="NPFF1 receptor (human NPFFR1 in CHO-RD-HGA16 cells) (Homo sapiens, UniProt Q9GZQ6)" result="1,620 nM"
compound="COc1ccc(CN[C@H]2C[C@@H](C(=O)NCCc3ccncc3)N(Cc3ccccc3Cl)C2)cc1 [Compound 37]" assay_system="NPFF1 receptor (human NPFFR1 in CHO-RD-HGA16 cells) (Homo sapiens, UniProt Q9GZQ6)" result="1,820 nM"
compound="COc1ccc(CN[C@H]2C[C@@H](C(=O)N3CCN(c4ccccc4)CC3)N(Cc3ccccc3Cl)C2)cc1 [Compound 42]" assay_system="NPFF1 receptor (human NPFFR1 in CHO-RD-HGA16 cells) (Homo sapiens, UniProt Q9GZQ6)" result="1,330 nM"
compound="COc1ccc(CN[C@H]2C[C@@H](C(=O)NCCc3ccc(F)cc3)N(Cc3ccccc3Cl)C2)cc1 [Compound 35]" assay_system="NPFF1 receptor (human NPFFR1 in CHO-RD-HGA16 cells) (Homo sapiens, UniProt Q9GZQ6)" result="1,130 nM"

====

The entries below are paired with their reported preference / selectivity for NPFF1 over NPFF2.
- Assay System: NPFF1 receptor (human NPFFR1 in CHO-RD-HGA16 cells) (Homo sapiens, UniProt Q9GZQ6)
- Construct: expressed in transfected cells
- Experimental Details: Calcium mobilization functional Ke assay, NPFF1
- Type: cell-based
- Condition Label: from calcium mobilization Ke values
Property Measured: preference / selectivity for NPFF1 over NPFF2

smiles_representation=COc1ccc(CN[C@H]2C[C@@H](C(=O)NCCc3ccccc3)N(Cc3cccc(Cl)c3)C2)cc1 result="> 10 fold"
smiles_representation=CCCCCNC(=O)[C@@H]1C[C@H](NCc2ccc(OC)cc2)CN1Cc1ccccc1Cl result="> 4 fold"
smiles_representation=COc1ccc(CN[C@H]2C[C@@H](C(=O)NCCc3ccc([N+](=O)[O-])cc3)N(Cc3ccccc3Cl)C2)cc1 result="~3 fold"

====

- Assay System: NPFF2 receptor (human NPFFR2 in CHO-RD-HGA16 cells) (Homo sapiens)
- Construct: expressed in transfected cells
- Sequence (Q9Y5X5 whole entry): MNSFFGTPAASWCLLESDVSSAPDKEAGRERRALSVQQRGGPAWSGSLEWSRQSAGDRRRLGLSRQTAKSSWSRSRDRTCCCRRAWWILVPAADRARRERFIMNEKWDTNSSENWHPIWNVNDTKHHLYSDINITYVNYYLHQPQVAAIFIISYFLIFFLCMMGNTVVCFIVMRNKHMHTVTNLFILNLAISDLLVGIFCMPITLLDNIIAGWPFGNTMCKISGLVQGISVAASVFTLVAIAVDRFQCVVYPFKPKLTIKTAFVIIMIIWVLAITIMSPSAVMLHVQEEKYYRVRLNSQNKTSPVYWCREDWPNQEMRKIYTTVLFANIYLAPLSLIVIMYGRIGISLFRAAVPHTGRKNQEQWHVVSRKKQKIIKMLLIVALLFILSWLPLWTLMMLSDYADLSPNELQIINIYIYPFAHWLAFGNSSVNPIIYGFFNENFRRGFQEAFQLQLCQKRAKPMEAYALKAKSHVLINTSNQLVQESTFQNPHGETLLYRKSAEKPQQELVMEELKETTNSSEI
- Experimental Details: Calcium mobilization functional Ke assay, NPFF2
- Type: cell-based
- Condition Label: Table 4; mean ± SEM; read-out: NPFF2 Ke
Reported Kb values for a set of compounds
Property Measured: Kb (µM)

compound="CCCCCCN1C[C@@H](NCc2ccc(OC)cc2)C[C@H]1C(=O)NCCc1ccccc1 [Compound 74]" property_measured=Kb operator== numeric_result=7.1
compound="COc1ccc(CN[C@H]2C[C@@H](C(=O)NCCc3ccccc3)N(Cc3ccccc3C)C2)cc1 [Compound 82]" property_measured=Kb operator== numeric_result=3.94
compound="COc1ccc(CN[C@H]2C[C@@H](C(=O)NCCc3ccccc3)N(Cc3ccccc3OC)C2)cc1 [Compound 79]" property_measured=Kb operator== numeric_result=5.11
compound="COc1ccc(CN[C@H]2C[C@@H](C(=O)NCCc3ccccc3)N(Cc3ccc(Cl)cc3)C2)cc1 [Compound 78]" property_measured=Kb operator== numeric_result=4.85
compound="COc1ccc(CN[C@H]2C[C@@H](C(=O)NCCc3ccccc3)N(Cc3ccc4ccccc4c3)C2)cc1 [Compound 87]" property_measured=Kb operator== numeric_result=7.22
compound="COc1ccc(CN[C@H]2C[C@@H](C(=O)NCCc3ccccc3)N(Cc3cccc(OC)c3)C2)cc1 [Compound 80]" property_measured=Kb operator=> numeric_result=10
compound="COc1ccc(CN[C@H]2C[C@@H](C(=O)NCCc3ccccc3)N(Cc3ccc(N(C)C)cc3)C2)cc1 [Compound 85]" property_measured=Kb operator=> numeric_result=10

====

- Assay System: NPFF2 receptor (CHO-hNPFFR2 membranes) (Homo sapiens)
- Construct: purchased PerkinElmer RBHNF2M400UA; host or cells: CHO cell membranes
- Sequence (Q9Y5X5 whole entry): as the sequence (Q9Y5X5 whole entry) above
- Experimental Details: Radioligand binding assay, [125I]NPFF, NPFF2
- Condition Label: Table 5; [125I]NPFF displacement
pKi: −log10 of the molar value.
We begin with a simple list: items and their reported pKi.
Property Measured: pKi

smiles_representation=CCCCCNC(=O)[C@@H]1C[C@H](NCc2ccc(OC)cc2)CN1Cc1ccccc1Cl assay_system="NPFF2 receptor (CHO-hNPFFR2 membranes) (Homo sapiens)" numeric_result=5.84
smiles_representation=COc1ccc(CN[C@H]2C[C@@H](C(=O)NCCc3ccc(F)c(F)c3)N(Cc3ccccc3Cl)C2)cc1 assay_system="NPFF2 receptor (CHO-hNPFFR2 membranes) (Homo sapiens)" numeric_result=5.83
smiles_representation=COc1ccc(CN[C@H]2C[C@@H](C(=O)NCCc3ccccc3)N(Cc3ccccc3Cl)C2)cc1 assay_system="NPFF2 receptor (CHO-hNPFFR2 membranes) (Homo sapiens)" numeric_result=5.91
smiles_representation=COc1ccc(CCNC(=O)[C@@H]2C[C@H](NCc3ccc(OC)cc3)CN2Cc2ccccc2Cl)cc1 assay_system="NPFF2 receptor (CHO-hNPFFR2 membranes) (Homo sapiens)" numeric_result=5.84

====

- Assay System: NPFF1 receptor (CHO-hNPFFR1 membranes) (Homo sapiens)
- Construct: purchased PerkinElmer RBHNF1M400UA; host or cells: CHO cell membranes
- Experimental Details: Radioligand binding assay, [125I]NPFF, NPFF1
- Condition Label: Table 5; [125I]NPFF displacement
pKi: −log10 of the molar value.
pKi listing for selected compounds.
Property Measured: pKi

smiles_representation=COc1ccc(CN[C@H]2C[C@@H](C(=O)NCCc3ccccc3)N(Cc3ccccc3Cl)C2)cc1 property_measured=pKi numeric_result=6.15
smiles_representation=COc1ccc(CN[C@H]2C[C@@H](C(=O)NCCc3ccc(F)c(F)c3)N(Cc3ccccc3Cl)C2)cc1 property_measured=pKi numeric_result=6.25
smiles_representation=COc1ccc(CCNC(=O)[C@@H]2C[C@H](NCc3ccc(OC)cc3)CN2Cc2ccccc2Cl)cc1 property_measured=pKi numeric_result=6.04
smiles_representation=CCCCCNC(=O)[C@@H]1C[C@H](NCc2ccc(OC)cc2)CN1Cc1ccccc1Cl property_measured=pKi numeric_result=6.05

====

- Assay System: NPFF1 receptor (human NPFFR1 in CHO-RD-HGA16 cells) (Homo sapiens)
- Construct: expressed in transfected cells
- Experimental Details: Calcium mobilization functional Ke assay, NPFF1
- Type: cell-based
- Condition Label: Table 1; mean ± SEM; apparent dissociation constant vs NPFF; read-out: NPFF1 Ke
Below, each of the compounds is paired with its reported Kb value.
Property Measured: Kb (µM)

compound="CCCCCCNC(=O)[C@@H]1C[C@H](NCc2ccc(OC)cc2)CN1Cc1ccccc1Cl [Compound 18]" value_units=µM operator== numeric_result=0.82
compound="COc1ccc(CN[C@H]2C[C@@H](C(=O)NCCc3ccncc3)N(Cc3ccccc3Cl)C2)cc1 [Compound 37]" value_units=µM operator== numeric_result=1.82
compound="COc1ccc(CN[C@H]2C[C@@H](C(=O)NCCc3ccc(F)c(F)c3)N(Cc3ccccc3Cl)C2)cc1 [Compound 34]" value_units=µM operator== numeric_result=0.61
compound="CCCNC(=O)[C@@H]1C[C@H](NCc2ccc(OC)cc2)CN1Cc1ccccc1Cl [Compound 12]" value_units=µM operator== numeric_result=2.6
compound="CCNC(=O)[C@@H]1C[C@H](NCc2ccc(OC)cc2)CN1Cc1ccccc1Cl [Compound 11]" value_units=µM operator=> numeric_result=10
compound="COc1ccc(CN[C@H]2C[C@@H](C(=O)NC(C)(C)C)N(Cc3ccccc3Cl)C2)cc1 [Compound 15]" value_units=µM operator== numeric_result=1.88
compound="COc1ccc(CN[C@H]2C[C@@H](C(=O)NCCC3CCCCC3)N(Cc3ccccc3Cl)C2)cc1 [Compound 21]" value_units=µM operator== numeric_result=1.12
compound="CCC(C)NC(=O)[C@@H]1C[C@H](NCc2ccc(OC)cc2)CN1Cc1ccccc1Cl (stereo partly drawn) [Compound 14]" value_units=µM operator== numeric_result=1.5
compound="COc1ccc(CN[C@H]2C[C@@H](C(=O)NCCc3ccc(F)cc3)N(Cc3ccccc3Cl)C2)cc1 [Compound 35]" value_units=µM operator== numeric_result=1.13
compound="CCCCNC(=O)[C@@H]1C[C@H](NCc2ccc(OC)cc2)CN1Cc1ccccc1Cl [Compound 13]" value_units=µM operator== numeric_result=1.24
compound="COc1ccc(CN[C@H]2C[C@@H](C(=O)NCCc3ccc(C(F)(F)F)cc3)N(Cc3ccccc3Cl)C2)cc1 [Compound 36]" value_units=µM operator== numeric_result=1.67
compound="COc1ccc(CN[C@H]2C[C@@H](C(=O)NCCN3CCOCC3)N(Cc3ccccc3Cl)C2)cc1 [Compound 20]" value_units=µM operator== numeric_result=1.96
compound="CCN(CC)C(=O)[C@@H]1C[C@H](NCc2ccc(OC)cc2)CN1Cc1ccccc1Cl [Compound 40]" value_units=µM operator== numeric_result=2.9
compound="COc1ccc(CN[C@H]2C[C@@H](C(=O)NCCc3ccccc3)N(Cc3ccccc3Cl)C2)cc1 [Compound 24]" value_units=µM operator== numeric_result=0.85
compound="CCCCCNC(=O)[C@@H]1C[C@H](NCc2ccc(OC)cc2)CN1Cc1ccccc1Cl [Compound 16]" value_units=µM operator== numeric_result=0.72
compound="COc1ccc(CCNC(=O)[C@@H]2C[C@H](NCc3ccc(OC)cc3)CN2Cc2ccccc2Cl)cc1 [Compound 26]" value_units=µM operator== numeric_result=0.67
compound="COc1ccc(CN[C@H]2C[C@@H](C(=O)NCCc3ccc(S(C)(=O)=O)cc3)N(Cc3ccccc3Cl)C2)cc1 [Compound 39]" value_units=µM operator== numeric_result=1.88
compound="COc1ccc(CN[C@H]2C[C@@H](C(=O)NCCC(C)C)N(Cc3ccccc3Cl)C2)cc1 [Compound 17]" value_units=µM operator== numeric_result=1.32
